# tested_on: Pyruvate kinase PKLR (Homo sapiens, UniProt P30613)
# Sequence (P30613 whole entry, looked up): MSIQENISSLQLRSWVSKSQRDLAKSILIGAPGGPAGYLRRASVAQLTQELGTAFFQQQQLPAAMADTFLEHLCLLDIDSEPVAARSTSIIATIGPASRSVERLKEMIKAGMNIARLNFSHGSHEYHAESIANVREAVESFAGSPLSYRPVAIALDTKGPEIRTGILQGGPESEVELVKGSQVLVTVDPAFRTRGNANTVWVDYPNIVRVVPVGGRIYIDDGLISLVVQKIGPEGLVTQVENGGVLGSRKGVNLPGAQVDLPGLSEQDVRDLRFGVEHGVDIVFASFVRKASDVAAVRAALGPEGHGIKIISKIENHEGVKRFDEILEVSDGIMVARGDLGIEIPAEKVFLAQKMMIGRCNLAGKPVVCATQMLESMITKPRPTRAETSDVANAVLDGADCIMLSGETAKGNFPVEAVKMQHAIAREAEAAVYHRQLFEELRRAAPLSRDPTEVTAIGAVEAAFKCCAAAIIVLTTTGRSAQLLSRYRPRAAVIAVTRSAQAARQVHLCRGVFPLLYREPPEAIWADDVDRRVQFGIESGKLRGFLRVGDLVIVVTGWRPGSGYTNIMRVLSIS
# protocol_text: Inhibition of PKL (unknown origin) at 10 uM for 30 mins by Kinase-Glo Max reagent based luminescence assay
So I've got a bunch of compounds here, and I need their inhibition values.
Answers are plain numbers, in %.

> print(dat)
                                   compound  reported.metric  unit.abbrev  reading
1  O=C1c2ccccc2C(=O)c2c1cc(S(=O)(=O)O)c(O)c2O       inhibition            %      100

// batch mode: one inhibition value per listed entry
1. O=C(O)CC(Nc1cc2c(cc1O)C(=O)c1ccccc1C2=O)C(=O)O (stereo not given)
2. O=C1c2ccccc2C(=O)c2cc(S(=O)(=O)O)ccc21
3. O=C(O)Cc1ccc(CNc2cc3c(cc2O)C(=O)c2ccccc2C3=O)cc1
4. O=C1c2ccccc2C(=O)c2c1cc(S(=O)(=O)N1CCCC(C(=O)N[C@@H](Cc3c[nH]cn3)C(=O)O)C1)c(O)c2O (stereo not given in full)

[57, 45, 76, 27]
